Target: T1, human activated coagulation factor X (FXa) (human, UniProt P00742 41-179; P00742 235-488)
T1 construct: mature; also called Factor Xa; human FXa
T1 sequence (P00742 41-179 limits assumed, chain 1 of 2): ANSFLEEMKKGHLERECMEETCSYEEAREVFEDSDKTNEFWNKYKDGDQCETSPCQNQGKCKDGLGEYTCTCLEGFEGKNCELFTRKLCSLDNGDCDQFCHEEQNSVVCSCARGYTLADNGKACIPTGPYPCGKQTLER
T1 sequence (P00742 235-488 limits assumed, chain 2 of 2): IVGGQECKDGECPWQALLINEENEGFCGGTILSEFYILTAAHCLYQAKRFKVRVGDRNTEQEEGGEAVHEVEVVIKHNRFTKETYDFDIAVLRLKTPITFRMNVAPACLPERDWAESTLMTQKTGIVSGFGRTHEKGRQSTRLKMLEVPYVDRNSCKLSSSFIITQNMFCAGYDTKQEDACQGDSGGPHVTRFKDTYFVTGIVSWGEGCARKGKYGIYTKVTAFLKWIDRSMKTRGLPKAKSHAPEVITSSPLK
Assay: calculated by Cheng-Prusoff from the enzyme-inhibition IC50 and the substrate Km (250 uM substrate)
Property label: Ki

Determine from records and report Ki for recombinant Simukunin (rSV-66), Simulium vittatum SV-66 without signal peptide, His-tagged, expressed in E. coli (other, also called rSimukunin; WT rSimukunin; not shown: His tag(s) from vector pET-30 Ek/LIC ('C-terminal double His tags')) QENVCNLPVDEGVCRALFKRFYYEPATDSCKEFYYGGCEGNGNRFKSKKECILKCQKNKQLIKTRKRKPKKTTKPPIPIISLD
~2.1 nM

Numbers sourced from patent US20150038419A1.
